Items are presented alongside their recorded EC50.
system: HeLa; assay: In vitro cytostatic activity against human HeLa cells assessed as cell growth after 72 hrs by colorimetric method; assay type: functional; conditions: read-out: ED50 (the source's name)

Known EC50 results, listed for orientation:
molecule	result
CC(=O)N[C@@H]1[C@@H](OC(C)=O)[C@H](OC(C)=O)[C@@H](COC(C)=O)O[C@H]1n1cc(CO)nn1	> 100 mg/L
ClCc1cn(Cc2ccccc2)nn1	18 mg/L
CC(=O)OC[C@H]1O[C@@H](n2cc(CCl)nn2)[C@H](OC(C)=O)[C@@H](OC(C)=O)[C@@H]1OC(C)=O	37 mg/L
CC(=O)N[C@@H]1[C@@H](OC(C)=O)[C@H](OC(C)=O)[C@@H](COC(C)=O)O[C@H]1n1cc(CCl)nn1	20 mg/L
CC(=O)OC[C@H]1O[C@@H](n2nnc(CO)c2CO)[C@H](OC(C)=O)[C@@H](OC(C)=O)[C@@H]1OC(C)=O	> 100 mg/L
CC(=O)OC[C@H]1O[C@@H](n2nncc2CBr)[C@H](OC(C)=O)[C@@H](OC(C)=O)[C@@H]1OC(C)=O	4 mg/L
Sc1ncnc2nc[nH]c12 [MERCAPTOPURINE ANHYDROUS]	0.1 mg/L
ICc1cn(Cc2ccccc2)nn1	2 mg/L

(Q) Returns the measured EC50 for the input molecule. Input: CC(=O)OC[C@H]1O[C@@H](n2nnc(CCl)c2CCl)[C@H](OC(C)=O)[C@@H](OC(C)=O)[C@@H]1OC(C)=O
(A) 6 mg/L

(Q) Returns the measured EC50 for the input molecule. Input: CC(=O)N[C@@H]1[C@@H](OC(C)=O)[C@H](OC(C)=O)[C@@H](COC(C)=O)O[C@H]1n1nnc(CO)c1CO
(A) > 100 mg/L

(Q) Returns the measured EC50 for the input molecule. Input: CC(=O)N[C@@H]1[C@@H](OC(C)=O)[C@H](OC(C)=O)[C@@H](COC(C)=O)O[C@H]1n1nncc1CO
(A) > 100 mg/L

(Q) Returns the measured EC50 for the input molecule. Input: BrCc1cn(Cc2ccccc2)nn1
(A) 2 mg/L

###

test system: HeLa; assay: In vitro cytostatic activity against human HeLa cells assessed as cell growth after 72 hrs by colorimetric method; format: functional; details: read-out: ED50 (the source's name)
Items are presented alongside their recorded EC50.
Numeric only. Scale: µg/mL

Known EC50 results, listed for orientation:
smiles repr	EC50 (µg/mL)
CC(=O)N[C@@H]1[C@@H](OC(C)=O)[C@H](OC(C)=O)[C@@H](COC(C)=O)O[C@H]1n1nncc1CCl	25
CC(=O)OC[C@H]1O[C@@H](n2nnc(CBr)c2CBr)[C@H](OC(C)=O)[C@@H](OC(C)=O)[C@@H]1OC(C)=O	3
CC(=O)OC[C@H]1O[C@@H](n2cc(CBr)nn2)[C@H](OC(C)=O)[C@@H](OC(C)=O)[C@@H]1OC(C)=O	3.5
CC(=O)N[C@@H]1[C@@H](OC(C)=O)[C@H](OC(C)=O)[C@@H](COC(C)=O)O[C@H]1n1cc(CBr)nn1	20
CC(=O)OC[C@H]1O[C@@H](n2cc(CI)nn2)[C@H](OC(C)=O)[C@@H](OC(C)=O)[C@@H]1OC(C)=O	2

(Q) Returns the measured EC50 for the input compound. Input: CC(=O)OC[C@H]1O[C@@H](n2nncc2CCl)[C@H](OC(C)=O)[C@@H](OC(C)=O)[C@@H]1OC(C)=O
(A) 25
